- Test system: BT-549 breast
- protocol_notes: NCI-60 one-dose screen, 48 h (100 = growth as untreated, 0 = no growth, -100 = all killed)
- condition_info: 10 µM unless noted
The panel holds about 83,000 compounds, 20% with a hit somewhere; the sample as a whole holds those more often. Active and inactive are the calls of the source. Rule for the calls: active = growth percent below 10; inactive = the rest.
parameter_measured: growth

Solved cases below.
Cn1cc(-c2cc(N)n3nc(-c4c[nH]c5ccccc45)cc3n2)c2cccnc21; 71.8% (inactive)
Cc1ccc(-c2nc(C#N)c(S(=O)(=O)N3CCN(S(=O)(=O)c4ccc(Cl)cc4)CC3)o2)cc1; 99.8% (inactive)
COC(=O)/C=C/c1cccc2c1C(=O)NC(C)(c1cc3cc4ccccc4cc3oc1=O)N2 (stereo unspecified); 45.2% (inactive)
COc1ccc2[nH]cc(-c3nnc(N)nc3-c3cn(C)c4ncc(Br)cc34)c2c1; 64.1% (inactive)
CCC(C)(C)c1ccc(OCCCCCCN2CCN(c3ccncc3)CC2)cc1; -44.2% (active)
COc1cc2oc(-c3cccc(NC(=O)[C@H](Cc4ccccc4)NC(=O)OC(C)(C)C)c3)cc(=O)c2c(OC)c1OC; 28.7% (inactive)
CCOC(=O)C(N=Nc1ccc(S(=O)(=O)N=C(N)N)cc1)C(C)=O (stereo unspecified); 113% (inactive)
CC1(C)CC[C@]2(C(=O)O)CC[C@]3(C)C(=CCC4[C@@]5(C)C[C@@H](O)[C@@H]6OC(c7ccccc7F)OC[C@@]6(C)C5CC[C@]43C)C2C1 (stereo partly specified); -15.9% (active)

-- ask If you can, please state the reported growth value of COc1cc(C2CC(c3cc(OC)c(OC)c(OC)c3)=Nc3c(N)nc(N)nc3N2)ccc1Oc1nc(NCCO)nc(N2CCOCC2)n1 (stereo unspecified) .
-- reply 116% (inactive)

-- ask Can you look up the measured growth of Cc1ccccc1[C@H]1C(C(=O)c2ccc(Cl)cc2)C2(N[C@@H]1c1ccccc1)C(=O)Nc1ccc(Cl)cc12 (stereo partly specified) for me?
-- reply -29.4% (active)

-- ask What growth value was documented for this compound, S=c1c2ccccc2nc2n1CCc1c-2[nH]c2ccccc12 ?
-- reply 49.9% (inactive)

Values from PubChem BioAssay (NCI)
